src = paper PMC7238052

# TARGET: Human neutrophil elastase (HNE) (Homo sapiens)
# Construct: gene ELANE; isolated enzyme, single polypeptide chain
# Sequence (P08246 30-247): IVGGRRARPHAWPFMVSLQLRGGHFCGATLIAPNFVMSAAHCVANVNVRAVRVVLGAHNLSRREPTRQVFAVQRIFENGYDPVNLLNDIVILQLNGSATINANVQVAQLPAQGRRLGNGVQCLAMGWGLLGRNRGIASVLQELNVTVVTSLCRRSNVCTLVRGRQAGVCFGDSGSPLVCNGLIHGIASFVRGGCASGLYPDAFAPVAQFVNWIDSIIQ
# ASSAY: fluorometric protease assay, MeO-Suc-Ala-Ala-Pro-Val-AMC
# Format: biochemical
# COND: read-out: IC50 ± SD (nM) / HNE
In this section, each of the compounds is paired with its reported IC50.
Answer format: numeric, nM implied, no suffix.

INSERT INTO assay_data (compound, measured_metric, quantity_unit, observed) VALUES
  ('CCC1(CC)C(=O)N(c2ccc(C(=O)NCCCNc3ccc([N+](=O)[O-])c4nonc34)cc2)C1=O [compound 17]', 'IC50', 'nM', 0.64);

Which measured IC50 belongs to CCC1(CC)C(=O)N(c2ccc(CSc3nc4cc(C(=O)NCCCNc5ccc([N+](=O)[O-])c6nonc56)ccc4o3)cc2)C1=O [compound 16] , tested on Human neutrophil elastase (HNE) (Homo sapiens)?
0.85
